Below, each of the compounds is paired with its reported T/C value.
Test system: CD2F1 mice, L1210 leukemia ip, survival T/C
Assay: NCI In Vivo Anticancer Drug Screen. Data for tumor model L1210 Leukemia (intraperitoneal) in CD2F1 (CDF1) mice
Conditions: endpoint: mean survival time; dose: 400.0 mg/kg/injection; schedule: Q04DX003 (ip); vehicle: other; higher = longer survival
Toxic doses and inconclusive results are not listed.

>>> result("CC1=CC(O)(C2(O)C=C(C)CC(C)(C)C2)CC(C)(C)C1 (stereo not given)")
"94 % of control"
>>> result("CN(C)C(=S)SCc1ccccc1")
"112 % of control"
>>> result("CC(=O)OC(c1ccc([N+](=O)[O-])cc1)c1ccccn1 (stereo not given)")
"93 % of control"
>>> result("CCCCCCCCCCCC(=O)CCCCC")
"97 % of control"

Now for a further compound.
## Input Please supply the value of reported T/C for the item "Cc1ccc(CSCc2ccc(C)cc2)cc1"
## Output 97 % of control

These measurements were taken from PubChem BioAssay AID256.
